- Species: Rattus norvegicus
- measurement.description: DrugMatrix - Regimen: Daily Repeat
- Type: toxicity, organism-based, Sprague-Dawley
- Parameters: regimen Daily Repeat, gender Male, age 6-8 weeks
- measurement.setup: in vivo, po, 1500 mg/kg, 120 h, tissue Blood, route oral GAVAGE, dose level High, time 5 day, vehicle .5 % CMC
outcome.measure: NEUTROPHIL (%)
Provide only the numeric value, understood in %.

# count of solved cases: 4
- molecule: "COc1cc(/C=C/C(=O)O)ccc1O [FERULATE]"
  outcome.measure: "NEUTROPHIL"
  u: "%"
  measured: 5.33
- molecule: "O=C(O)CCc1nc(-c2ccccc2)c(-c2ccccc2)o1"
  outcome.measure: "NEUTROPHIL"
  u: "%"
  measured: 13.33
- molecule: "COc1ccc(Cl)cc1C(=O)NCCc1ccc(S(=O)(=O)NC(=O)NC2CCCCC2)cc1 [GLYBURIDE]"
  outcome.measure: "NEUTROPHIL"
  u: "%"
  measured: 5
- molecule: "CC[C@H]1OC(=O)[C@H](C)[C@@H](O[C@H]2C[C@@](C)(OC)[C@@H](O)[C@H](C)O2)[C@H](C)[C@@H](O[C@@H]2O[C@H](C)C[C@H](N(C)C)[C@H]2O)[C@](C)(O)C[C@@H](C)C(=O)[C@H](C)[C@@H](O)[C@]1(C)O"
  outcome.measure: "NEUTROPHIL"
  u: "%"
  measured: 11

Continue with the molecule presented below.
Request: GET /values?readout=NEUTROPHIL&item= Cc1ccc(S(=O)(=O)NC(=O)NN2CCCCCC2)cc1 [TOLAZAMIDE]
Response: 9.67
